experiment: Therapeutic index value for anti-Ehrlich activity.; details: mouse; read-out: TI
selectivity ratio for assorted compounds
Quantity name: selectivity ratio

* COCCCN(C(=O)N(CCCl)N=O)C1OC(CO)C(OC2OC(CO)C(O)C(O)C2O)C(O)C1O (stereo unspecified) | 64
* C=CCCN(C(=O)N(CCCl)N=O)C1OC(CO)C(OC2OC(CO)C(O)C(O)C2O)C(O)C1O (stereo unspecified) | 128
* CC(C)CN(C(=O)N(CCCl)N=O)C1OC(COC2OC(CO)C(O)C(O)C2O)C(O)C(O)C1O (stereo unspecified) | 1
* C=C(C)CN(C(=O)N(CCCl)N=O)C1OC(CO)C(OC2OC(CO)C(O)C(O)C2O)C(O)C1O (stereo unspecified) | 128
* CCCCCCCCCCCCCCCCN(C(=O)N(CCCl)N=O)C1OC(CO)C(OC2OC(CO)C(O)C(O)C2O)C(O)C1O (stereo unspecified) | 32
* O=NN(CCCl)C(=O)N(Cc1ccc(Cl)cc1)C1OC(CO)C(OC2OC(CO)C(O)C(O)C2O)C(O)C1O (stereo unspecified) | 128
* O=NN(CCCl)C(=O)N(CC1CCCO1)C1OC(CO)C(OC2OC(CO)C(O)C(O)C2O)C(O)C1O (stereo unspecified) | 64
* CN(C(=O)N(CCCl)N=O)C1OC(CO)C(OC2OC(CO)C(O)C(O)C2O)C(O)C1O (stereo unspecified) | 32
* CCCCCN(C(=O)N(CCCl)N=O)C1OC(CO)C(OC2OC(CO)C(O)C(O)C2O)C(O)C1O (stereo unspecified) | 64
* COCCN(C(=O)N(CCCl)N=O)C1OC(CO)C(OC2OC(CO)C(O)C(O)C2O)C(O)C1O (stereo unspecified) | 64
* CCOCCN(C(=O)N(CCCl)N=O)C1OC(CO)C(OC2OC(CO)C(O)C(O)C2O)C(O)C1O (stereo unspecified) | 64
